- target: T1, GPC3 (UniProt P51654 25-559, limits assumed)
- T1 construct: also called antigen GPC3; Glypican 3
- T1 sequence (P51654 25-559 limits assumed): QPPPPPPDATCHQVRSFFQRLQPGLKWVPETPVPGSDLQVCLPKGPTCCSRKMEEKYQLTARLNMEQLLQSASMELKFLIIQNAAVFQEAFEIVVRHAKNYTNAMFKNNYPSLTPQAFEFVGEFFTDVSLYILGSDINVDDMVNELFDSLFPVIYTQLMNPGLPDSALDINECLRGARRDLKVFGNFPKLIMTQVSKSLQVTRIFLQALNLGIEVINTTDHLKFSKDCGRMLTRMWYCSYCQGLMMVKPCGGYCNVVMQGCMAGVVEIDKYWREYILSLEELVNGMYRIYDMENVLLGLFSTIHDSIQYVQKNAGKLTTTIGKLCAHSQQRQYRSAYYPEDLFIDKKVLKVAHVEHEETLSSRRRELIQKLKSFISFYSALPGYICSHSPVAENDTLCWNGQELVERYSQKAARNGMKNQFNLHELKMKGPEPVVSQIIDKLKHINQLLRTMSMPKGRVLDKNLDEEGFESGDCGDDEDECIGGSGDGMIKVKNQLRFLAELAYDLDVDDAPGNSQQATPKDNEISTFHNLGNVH
- method-description: SPR as in Example 1 (Biacore T200; scFv-Fc captured, GPC3 in flow)
parameter: kon (M⁻¹ s⁻¹)
Give just the numeric value; M⁻¹ s⁻¹ need not be written.

For orientation, consider the following solved cases.
binder	kon (M⁻¹ s⁻¹)
VL1.M2-VH2.M11 humanized scFv (scFv, not shown: a dimerising Fc or GST) scFv: DIVMTQTPLSLSVTPGQPASISCRSSQSLVHSNGNTYLHWYLQKPGQSPQLLIYKVSSRFSGVPDRFSGSGSGTDFTLKISRVEAEDVGVYYCSQNTHVPPTFGQGTKVEIKGGGGSGGGGSGGGGSQVQLVQSGAEVKKPGASVKVSCKASGYTFTSYEMHWVRQAPGQGLEWMGALDPKTGSTAYSQKFQGRVTLTADTSTSTVYMELSSLRSEDTAVYYCTRFYSYTYWGQGTLVTVSS	67000
VL1.M2-VH2.M8 humanized scFv (scFv, not shown: a dimerising Fc or GST) scFv: DIVMTQTPLSLSVTPGQPASISCRSSQSLVHSNGNTYLHWYLQKPGQSPQLLIYKVSSRFSGVPDRFSGSGSGTDFTLKISRVEAEDVGVYYCSQNTHVPPTFGQGTKVEIKGGGGSGGGGSGGGGSQVQLVQSGAEVKKPGASVKVSCKASGYTFTSYEMHWVRQAPGQGLEWMGALDPSTGDTAYSQKFQGRVTLTADTSTSTVYMELSSLRSEDTAVYYCTRFYSYTYWGQGTLVTVSS	74000
VL1.M2-VH2.M6 humanized scFv (scFv, not shown: a dimerising Fc or GST, Crude scFv with Fc tag from HEK293 supernatant) scFv: DIVMTQTPLSLSVTPGQPASISCRSSQSLVHSNGNTYLHWYLQKPGQSPQLLIYKVSSRFSGVPDRFSGSGSGTDFTLKISRVEAEDVGVYYCSQNTHVPPTFGQGTKVEIKGGGGSGGGGSGGGGSQVQLVQSGAEVKKPGASVKVSCKASGYTFTSYEMHWVRQAPGQGLEWMGALDPKTGDTAYSQKFQGRVTLTADTSTSTVYMELSSLRSEDTAVYYCTRFYSYTYWGQGTLVTVSS	70000
VL1.M6-VH2.M6 humanized scFv (scFv, not shown: a dimerising Fc or GST) scFv: DIVMTQTPLSLSVTPGQPASISCRSSQSLVHSNGNTYLHWYLQKPGQSPQLLIYKVSSRFSGVPDRFSGSGSGTDFTLKISRVEAEDVGVYYCMQNTHVPPTFGQGTKVEIKGGGGSGGGGSGGGGSQVQLVQSGAEVKKPGASVKVSCKASGYTFTSYEMHWVRQAPGQGLEWMGALDPKTGDTAYSQKFQGRVTLTADTSTSTVYMELSSLRSEDTAVYYCTRFYSYTYWGQGTLVTVSS	100000
VL1.M2-VH2.M10 humanized scFv (scFv, not shown: a dimerising Fc or GST) scFv: DIVMTQTPLSLSVTPGQPASISCRSSQSLVHSNGNTYLHWYLQKPGQSPQLLIYKVSSRFSGVPDRFSGSGSGTDFTLKISRVEAEDVGVYYCSQNTHVPPTFGQGTKVEIKGGGGSGGGGSGGGGSQVQLVQSGAEVKKPGASVKVSCKASGYTFTSYEMHWVRQAPGQGLEWMGALDPSGGDTAYSQKFQGRVTLTADTSTSTVYMELSSLRSEDTAVYYCTRFYSYTYWGQGTLVTVSS	74000

# return recorded kon for entry VL1.M3-VH2.M6 humanized scFv (scFv, not shown: a dimerising Fc or GST) scFv: DIVMTQTPLSLSVTPGQPASISCRSSQSLVHSNGKTYLHWYLQKPGQSPQLLIYKVSSRFSGVPDRFSGSGSGTDFTLKISRVEAEDVGVYYCSQNTHVPPTFGQGTKVEIKGGGGSGGGGSGGGGSQVQLVQSGAEVKKPGASVKVSCKASGYTFTSYEMHWVRQAPGQGLEWMGALDPKTGDTAYSQKFQGRVTLTADTSTSTVYMELSSLRSEDTAVYYCTRFYSYTYWGQGTLVTVSS
61000

# return recorded kon for entry VL1.M8-VH2.M6 humanized scFv (scFv, not shown: a dimerising Fc or GST) scFv: DIVMTQTPLSLSVTPGQPASISCRSSQSLVHSNGNTYLHWYLQKPGQSPQLLIYKVSSRFSGVPDRFSGSGSGTDFTLKISRVEAEDVGVYYCSQNTHWPPTFGQGTKVEIKGGGGSGGGGSGGGGSQVQLVQSGAEVKKPGASVKVSCKASGYTFTSYEMHWVRQAPGQGLEWMGALDPKTGDTAYSQKFQGRVTLTADTSTSTVYMELSSLRSEDTAVYYCTRFYSYTYWGQGTLVTVSS
94000

# return recorded kon for entry VL1.M2-VH2.M9 humanized scFv (scFv, not shown: a dimerising Fc or GST) scFv: DIVMTQTPLSLSVTPGQPASISCRSSQSLVHSNGNTYLHWYLQKPGQSPQLLIYKVSSRFSGVPDRFSGSGSGTDFTLKISRVEAEDVGVYYCSQNTHVPPTFGQGTKVEIKGGGGSGGGGSGGGGSQVQLVQSGAEVKKPGASVKVSCKASGYTFTSYEMHWVRQAPGQGLEWMGALDPKGGDTAYSQKFQGRVTLTADTSTSTVYMELSSLRSEDTAVYYCTRFYSYTYWGQGTLVTVSS
74000
